# tgt: hCMV gH + gL + UL128 + UL130 + UL131A (co-expressed in HEK293T cells) (human cytomegalovirus), P12824
# test: competitor: 6G4-biotin; cell staining
# assay_context: remark: other sources report otherwise
List of Inhibition of binding (%) values.
Write the value in % as a bare number.

1) 10F7 (antibody, V domains shown) VH: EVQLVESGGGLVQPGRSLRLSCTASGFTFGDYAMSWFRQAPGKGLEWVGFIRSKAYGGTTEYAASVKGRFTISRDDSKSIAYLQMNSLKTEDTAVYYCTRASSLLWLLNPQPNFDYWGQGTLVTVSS VL: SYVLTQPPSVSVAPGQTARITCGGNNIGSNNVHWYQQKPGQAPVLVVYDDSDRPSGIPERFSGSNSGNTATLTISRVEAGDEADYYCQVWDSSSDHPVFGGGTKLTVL ... 0

Read the next record carefully.
[Q] Reported Inhibition of binding (%), binder 2C12 (antibody, V domains shown) VH: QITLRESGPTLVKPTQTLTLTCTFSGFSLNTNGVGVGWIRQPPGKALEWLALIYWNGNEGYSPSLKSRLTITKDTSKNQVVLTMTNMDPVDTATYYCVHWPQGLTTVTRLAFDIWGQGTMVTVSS VL: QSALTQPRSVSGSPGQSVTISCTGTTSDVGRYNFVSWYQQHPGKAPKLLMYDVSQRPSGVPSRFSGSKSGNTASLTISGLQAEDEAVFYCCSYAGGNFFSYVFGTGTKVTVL : ____
[A] 100
